- Subject of test: recombinant Hos2p.V5His6 (Saccharomyces cerevisiae)
- Construct: YGL194C/HOS2 from S. cerevisiae (residues 1-452 upstream the stop codon); made in house; host or cells: S. cerevisiae BY4742 or isogenic Δhos2 strain carrying pYES2.1.HOS2.V5His6 #7, galactose-induced
- Sequence (P53096 whole entry, the tested form may be a part): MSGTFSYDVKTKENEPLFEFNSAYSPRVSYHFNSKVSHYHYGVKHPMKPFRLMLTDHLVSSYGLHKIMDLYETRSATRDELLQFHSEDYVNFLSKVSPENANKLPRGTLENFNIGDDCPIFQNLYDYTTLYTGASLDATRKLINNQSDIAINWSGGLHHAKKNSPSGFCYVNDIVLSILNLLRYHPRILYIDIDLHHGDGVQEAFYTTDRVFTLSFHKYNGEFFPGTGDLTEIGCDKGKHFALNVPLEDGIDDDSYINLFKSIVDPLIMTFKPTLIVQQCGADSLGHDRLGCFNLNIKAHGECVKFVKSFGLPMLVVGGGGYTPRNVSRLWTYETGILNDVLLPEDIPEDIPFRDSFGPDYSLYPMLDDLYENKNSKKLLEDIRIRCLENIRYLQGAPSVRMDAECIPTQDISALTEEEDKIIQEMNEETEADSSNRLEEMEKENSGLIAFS
- Measurement notes: HDAC assay with purified recombinant Hos2p.V5His6 fractions
- Format: biochemical, S. cerevisiae
- Cond: Hos2 from S. cerevisiae BY4742/HOS2.V5His6 grown in raffinose (GAL1 repressed) or galactose (induced); read-out: IC50 (ug/ml)
pIC50: −log10 of the molar value.
Measurement type: pIC50

Quick note, pIC50 for O=C(Cc1ccc(CCCCc2ccccc2)cc1)NO landed at ~4.98

====

- System: ScHOS2 deletion mutant
- Measurement notes: Serial dilution sensitivity of yeast deletion strain to antifungal agents
- Format: cell-based, S. cerevisiae
- Cond: FIGS. 4-12
Measurement type: hypersensitivity of ScHOS2 deletion mutant to antifungal agent

Quick note, hypersensitivity of ScHOS2 deletion mutant to antifungal agent for Nc1nc(=O)[nH]cc1F landed at not hypersensitive

Quick note, hypersensitivity of ScHOS2 deletion mutant to antifungal agent for OC(Cn1cncn1)(Cn1cncn1)c1ccc(F)cc1F landed at hypersensitive

Quick note, hypersensitivity of ScHOS2 deletion mutant to antifungal agent for C[C@@H](c1ncncc1F)[C@](O)(Cn1cncn1)c1ccc(F)cc1F landed at hypersensitive

Quick note, hypersensitivity of ScHOS2 deletion mutant to antifungal agent for CC(=O)N1CCN(c2ccc(OCC3COC(Cn4ccnc4)(c4ccc(Cl)cc4Cl)O3)cc2)CC1 (centres unmarked) landed at hypersensitive

Quick note, hypersensitivity of ScHOS2 deletion mutant to antifungal agent for C[C@@H]([C@H](N)C(=O)N[C@H](C(=O)O)[C@H]1O[C@@H](n2ccc(=O)[nH]c2=O)[C@H](O)[C@@H]1O)[C@H](O)c1ccc(O)cn1 landed at not hypersensitive

---
Quick note, hypersensitivity of ScHOS2 deletion mutant to antifungal agent for CN(C/C=C/C#CC(C)(C)C)Cc1cccc2ccccc12 landed at not hypersensitive

Quick note, hypersensitivity of ScHOS2 deletion mutant to antifungal agent for C[C@@H]1[C@H](O)[C@@H](C)/C=C/C=C/C=C/C=C/C=C/C=C/C=C/[C@H](O[C@@H]2O[C@H](C)[C@@H](O)[C@H](N)[C@@H]2O)C[C@@H]2O[C@](O)(C[C@@H](O)C[C@@H](O)[C@H](O)CC[C@@H](O)C[C@@H](O)CC(=O)O[C@H]1C)C[C@H](O)[C@H]2C(=O)O landed at not hypersensitive

Quick note, hypersensitivity of ScHOS2 deletion mutant to antifungal agent for CC(Cc1ccc(C(C)(C)C)cc1)CN1C[C@@H](C)O[C@@H](C)C1 (some centres unmarked) landed at hypersensitive

====

- Subject of test: recombinant Hos2p.V5His6 (Saccharomyces cerevisiae)
- Construct: YGL194C/HOS2 from S. cerevisiae (residues 1-452 upstream the stop codon); made in house; host or cells: S. cerevisiae BY4742 or isogenic Δhos2 strain carrying pYES2.1.HOS2.V5His6 #7, galactose-induced
- Measurement notes: HDAC assay with purified recombinant Hos2p.V5His6 fractions
- Format: biochemical, S. cerevisiae
- Cond: Hos2 from S. cerevisiae BY4742/HOS2.V5His6 grown in glucose (GAL1 repressed) or galactose (induced); read-out: IC50 (ug/ml)
Measurement type: IC50

Quick note, IC50 for O=C(Cc1ccc(CCCCc2ccccc2)cc1)NO landed at ~14.1 µM
